- Tested on: SAOS-2 (osteosarcoma)
- MEASUREMENT PROTOCOL: WST-1 cytotoxicity assay, SAOS-2
- Type: cell-based
- RUN CONDITIONS: Homo sapiens, c = 10 μM, 48 h, percent of proliferation of untreated control cells, read-out: Cell proliferation, SAOS-2
Recorded measurements of activity at 10 µM, one per entry

| MOLECULE | UNIT DESCRIPTOR | activity at 10 µM |
| --- | --- | --- |
| COc1cccc2c1C(=O)c1c(O)c3c(c(O)c1C2=O)C[C@@](O)(C(=O)CO)C[C@@H]3O[C@H]1C[C@H](N)[C@H](O)[C@H](C)O1 [DOX, Doxorubicin, reference compound] | % | 73 |
| CCCC(=O)OC1CN2Cc3cc4c(cc3C13C=CC(OC)CC23)OCO4 (stereo not drawn) [Compound 1f, 11-O-Butanoylhaemanthamine] | % | 104 |
| COC1C=CC23c4cc5c(cc4CN(CC2OC(=O)c2ccccc2)C3C1)OCO5 (stereo not drawn) [Compound 1g, 11-O-Benzoylhaemanthamine] | % | 104 |

* * *

Reported IC50 values for a set of compounds
- TGT: hAChE (Homo sapiens, UniProt P22303)
- Sequence (P22303 32-614): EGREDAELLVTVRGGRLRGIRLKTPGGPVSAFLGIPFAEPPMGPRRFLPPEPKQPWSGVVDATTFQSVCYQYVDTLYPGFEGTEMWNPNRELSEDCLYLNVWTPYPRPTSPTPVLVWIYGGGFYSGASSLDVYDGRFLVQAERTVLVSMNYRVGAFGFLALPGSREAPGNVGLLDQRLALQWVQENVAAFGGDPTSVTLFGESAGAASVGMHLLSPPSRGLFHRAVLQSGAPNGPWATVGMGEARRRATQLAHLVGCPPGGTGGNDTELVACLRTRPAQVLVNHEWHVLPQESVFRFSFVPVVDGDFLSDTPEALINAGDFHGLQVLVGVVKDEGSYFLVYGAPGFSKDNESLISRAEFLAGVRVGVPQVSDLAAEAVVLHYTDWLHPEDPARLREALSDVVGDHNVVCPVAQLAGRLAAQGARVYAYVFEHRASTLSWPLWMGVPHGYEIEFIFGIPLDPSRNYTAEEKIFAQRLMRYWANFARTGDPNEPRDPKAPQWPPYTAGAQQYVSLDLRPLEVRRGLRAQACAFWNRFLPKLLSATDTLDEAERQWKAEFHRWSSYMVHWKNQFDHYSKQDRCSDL
- MEASUREMENT PROTOCOL: biochemical
- Format: biochemical
- RUN CONDITIONS: mean ± SEM of three independent measurements, each in triplicate
READOUT LABEL: IC50

| COMPOUND | RESULT |
| --- | --- |
| COC1C=CC23c4cc5c(cc4CN(CC2OC(=O)c2cccc(Cl)c2)C3C1)OCO5 (stereo not shown) | 85.1 µM |
| COC1C=CC23c4cc5c(cc4CN(CC2OC(C)=O)C3C1)OCO5 (stereo not shown) | > 500 µM |
| CCCCC(=O)OC1CN2Cc3cc4c(cc3C13C=CC(OC)CC23)OCO4 (stereo not shown) | > 500 µM |
| CCCC(=O)OC1CN2Cc3cc4c(cc3C13C=CC(OC)CC23)OCO4 (stereo not shown) | > 500 µM |
| COC1C=CC23c4cc5c(cc4CN(CC2OC(=O)c2ccccc2)C3C1)OCO5 (stereo not shown) | 294 µM |
| COC1C=CC23c4cc5c(cc4CN(CC2OC(=O)C(C)C)C3C1)OCO5 (stereo not shown) | > 500 µM |
| CCC(=O)OC1CN2Cc3cc4c(cc3C13C=CC(OC)CC23)OCO4 (stereo not shown) | > 500 µM |
| COC1C=CC23c4cc5c(cc4CN(CC2OC(=O)c2ccccc2C)C3C1)OCO5 (stereo not shown) | 18.2 µM |
| CCCCCC(=O)OC1CN2Cc3cc4c(cc3C13C=CC(OC)CC23)OCO4 (stereo not shown) | > 500 µM |
| COC1C=CC23c4cc5c(cc4CN(CC2O)C3C1)OCO5 (stereo not shown) | > 500 µM |
| COc1cccc(C(=O)OC2CN3Cc4cc5c(cc4C24C=CC(OC)CC34)OCO5)c1 (stereo not shown) | 180 µM |
| COC1C=CC23c4cc5c(cc4CN(CC2OC(=O)c2cccc(Br)c2)C3C1)OCO5 (stereo not shown) | 112 µM |
| COC1C=CC23c4cc5c(cc4CN(CC2OC(=O)c2ccc([N+](=O)[O-])cc2)C3C1)OCO5 (stereo not shown) | 14.7 µM |

* * *

- TGT: hBuChE (Homo sapiens)
- Sequence (P06276 29-602): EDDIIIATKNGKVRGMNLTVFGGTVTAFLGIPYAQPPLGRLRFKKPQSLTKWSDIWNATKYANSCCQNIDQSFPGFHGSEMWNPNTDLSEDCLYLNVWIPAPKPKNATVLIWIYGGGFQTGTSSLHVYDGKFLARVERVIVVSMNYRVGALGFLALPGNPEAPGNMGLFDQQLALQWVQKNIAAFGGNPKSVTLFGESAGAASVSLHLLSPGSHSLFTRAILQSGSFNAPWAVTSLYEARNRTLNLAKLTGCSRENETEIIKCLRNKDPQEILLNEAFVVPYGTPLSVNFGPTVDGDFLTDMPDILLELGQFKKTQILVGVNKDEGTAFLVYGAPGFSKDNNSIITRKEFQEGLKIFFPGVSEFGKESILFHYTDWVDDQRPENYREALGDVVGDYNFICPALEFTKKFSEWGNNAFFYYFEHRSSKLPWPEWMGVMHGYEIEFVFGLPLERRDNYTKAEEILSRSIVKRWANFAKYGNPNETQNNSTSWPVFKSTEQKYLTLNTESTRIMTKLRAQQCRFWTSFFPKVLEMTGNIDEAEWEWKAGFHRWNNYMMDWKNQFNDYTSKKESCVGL

| COMPOUND | UNIT DESCRIPTOR | Ki |
| --- | --- | --- |
| COC1C=CC23c4cc5c(cc4CN(CC2OC(=O)c2ccccc2C)C3C1)OCO5 (stereo not shown) [Compound 1j, 11-O-(2-Methylbenzoyl)haemanthamine] | µM | 12.5 |

* * *

- System: Jurkat (acute T cell leukemia)
- MEASUREMENT PROTOCOL: WST-1 cytotoxicity assay, Jurkat
- Format: cell-based
- RUN CONDITIONS: Homo sapiens, c = 10 μM, 48 h, percent of proliferation of untreated control cells

| MOLECULE | activity at 10 µM [%] |
| --- | --- |
| COC1C=CC23c4cc5c(cc4CN(CC2OC(=O)c2ccc([N+](=O)[O-])cc2)C3C1)OCO5 (stereo not drawn) | 69 |
| COc1cccc(C(=O)OC2CN3Cc4cc5c(cc4C24C=CC(OC)CC34)OCO5)c1 (stereo not drawn) | 83 |
| CCCCCC(=O)OC1CN2Cc3cc4c(cc3C13C=CC(OC)CC23)OCO4 (stereo not drawn) | 100 |

* * *

- MEASUREMENT PROTOCOL: in vitro
- RUN CONDITIONS: pig, PAMPA, PAMPA-BBB Permeability (Pe), PBS:EtOH (70:30) as solvent; mean ± SD of 2 independent experiments
This section presents molecules with their documented Papp values.

| MOLECULE | Papp |
| --- | --- |
| COC1C=CC23c4cc5c(cc4CN(CC2OC(=O)c2ccc([N+](=O)[O-])cc2)C3C1)OCO5 (centres unmarked) | > 4 ×10⁻⁶ cm/s |
| COC1C=CC23c4cc5c(cc4CN(CC2OC(=O)c2ccccc2C)C3C1)OCO5 (centres unmarked) | > 4 ×10⁻⁶ cm/s |

* * *

- Tested on: Jurkat (acute T cell leukemia)
- MEASUREMENT PROTOCOL: WST-1 cytotoxicity assay, Jurkat
- Assay type: cell-based
- RUN CONDITIONS: Homo sapiens, c = 10 μM, 48 h, percent of proliferation of untreated control cells
activity at 10 µM by entry:

| COMPOUND | activity at 10 µM (%) |
| --- | --- |
| COC1C=CC23c4cc5c(cc4CN(CC2OC(=O)c2ccccc2C)C3C1)OCO5 (stereo not drawn) | 95 |
| CCCCC(=O)OC1CN2Cc3cc4c(cc3C13C=CC(OC)CC23)OCO4 (stereo not drawn) | 92 |
| COC1C=CC23c4cc5c(cc4CN(CC2OC(=O)C(C)C)C3C1)OCO5 (stereo not drawn) | 110 |
| CCC(=O)OC1CN2Cc3cc4c(cc3C13C=CC(OC)CC23)OCO4 (stereo not drawn) | 104 |
| COc1cccc2c1C(=O)c1c(O)c3c(c(O)c1C2=O)C[C@@](O)(C(=O)CO)C[C@@H]3O[C@H]1C[C@H](N)[C@H](O)[C@H](C)O1 [DOX, Doxorubicin, reference compound] | 0 |
| COC1C=CC23c4cc5c(cc4CN(CC2OC(C)=O)C3C1)OCO5 (stereo not drawn) | 100 |

* * *

- MEASUREMENT PROTOCOL: in vitro
- RUN CONDITIONS: pig, PAMPA, PAMPA-BBB Permeability (Pe)

| COMPOUND | Papp, ×10⁻⁶ cm/s |
| --- | --- |
| CN(C)CCCN1c2ccccc2Sc2ccccc21 [Promazine, reference compound] | 8.6 |

* * *

Recorded activity at 10 µM, one value per entry.
- Tested on: HeLa (cervix adenocarcinoma)
- MEASUREMENT PROTOCOL: WST-1 cytotoxicity assay, HeLa
- Type: cell-based
- RUN CONDITIONS: Homo sapiens, c = 10 μM, 48 h, percent of proliferation of untreated control cells, read-out: Cell proliferation, HeLa
READOUT LABEL: activity at 10 µM (%)

| MOLECULE | READOUT LABEL | QUANTITATIVE RESULT |
| --- | --- | --- |
| CCCCC(=O)OC1CN2Cc3cc4c(cc3C13C=CC(OC)CC23)OCO4 (stereo not drawn) | activity at 10 µM | 93 |
| COC1C=CC23c4cc5c(cc4CN(CC2OC(=O)c2ccc([N+](=O)[O-])cc2)C3C1)OCO5 (stereo not drawn) | activity at 10 µM | 71 |
| COc1cccc2c1C(=O)c1c(O)c3c(c(O)c1C2=O)C[C@@](O)(C(=O)CO)C[C@@H]3O[C@H]1C[C@H](N)[C@H](O)[C@H](C)O1 [DOX, Doxorubicin, reference compound] | activity at 10 µM | 7 |
| CCCCCC(=O)OC1CN2Cc3cc4c(cc3C13C=CC(OC)CC23)OCO4 (stereo not drawn) | activity at 10 µM | 98 |
| CCCC(=O)OC1CN2Cc3cc4c(cc3C13C=CC(OC)CC23)OCO4 (stereo not drawn) | activity at 10 µM | 88 |
| COC1C=CC23c4cc5c(cc4CN(CC2OC(=O)C(C)C)C3C1)OCO5 (stereo not drawn) | activity at 10 µM | 74 |
| CCC(=O)OC1CN2Cc3cc4c(cc3C13C=CC(OC)CC23)OCO4 (stereo not drawn) | activity at 10 µM | 69 |
| COC1C=CC23c4cc5c(cc4CN(CC2OC(C)=O)C3C1)OCO5 (stereo not drawn) | activity at 10 µM | 83 |
| COC1C=CC23c4cc5c(cc4CN(CC2OC(=O)c2ccccc2C)C3C1)OCO5 (stereo not drawn) | activity at 10 µM | 104 |
| COC1C=CC23c4cc5c(cc4CN(CC2OC(=O)c2cccc(Br)c2)C3C1)OCO5 (stereo not drawn) | activity at 10 µM | 93 |
| COc1cccc(C(=O)OC2CN3Cc4cc5c(cc4C24C=CC(OC)CC34)OCO5)c1 (stereo not drawn) | activity at 10 µM | 84 |
| COC1C=CC23c4cc5c(cc4CN(CC2OC(=O)c2ccccc2)C3C1)OCO5 (stereo not drawn) | activity at 10 µM | 98 |

Origin of values: paper PMC6480460
